subject_of_test: GST-tagged recombinant full-length human PIM-2 (Homo sapiens (Human))
Sequence (Q9P1W9 whole entry): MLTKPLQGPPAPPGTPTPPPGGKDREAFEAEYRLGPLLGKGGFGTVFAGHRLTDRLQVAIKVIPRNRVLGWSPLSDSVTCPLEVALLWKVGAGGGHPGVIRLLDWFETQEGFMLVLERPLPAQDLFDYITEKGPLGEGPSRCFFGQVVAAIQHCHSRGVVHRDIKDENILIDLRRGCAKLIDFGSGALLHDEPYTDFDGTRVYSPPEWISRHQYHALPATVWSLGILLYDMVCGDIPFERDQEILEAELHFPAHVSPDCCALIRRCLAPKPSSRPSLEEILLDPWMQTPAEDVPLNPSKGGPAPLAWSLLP
assay_remarks: PIM-2 Enzyme Assay
measurement_context: read-out: PIM-2 IC50; 4 μM ATP, […] PIM-2
Where a name gives a salt, the structure may show the parent alone.
result_type: IC50 (nM)
Please respond with the number in nM and leave the unit unwritten.

Name the recorded IC50 for CC(C)(CCN)COc1cccc2ccc(-c3nnc4ccccn34)nc12 [Example 132] .
76.5

Field entry: c1cc(OCC2CCCNC2)c2nc(-c3nnc4ccccn34)ccc2c1 (stereo not shown) [Example 16]
169

Field entry: c1cc(OC[C@@H]2CCCN2)c2nc(-c3nnc4ccccn34)ccc2c1 [Example 61]
10000

Field entry: CC(C)(CO)COc1cccc2ccc(-c3nnc4ccccn34)nc12 [Example 24]
77

Field entry: c1cc(OCCC2CCCCN2)c2nc(-c3nnc4ccccn34)ccc2c1 (stereo not shown) [Example 15]
4220

Field entry: FCCN1CCC(F)(COc2cccc3ccc(-c4nnc5ccccn45)nc23)CC1 [Example 105, dihydrochloride]
409

Field entry: CCC(CO)COc1cccc2ccc(-c3nnc4ccccn34)nc12 (stereo not shown) [Example 130]
1000

Field entry: Fc1cc(OC2CCNCCC2F)c2nc(-c3nnc4ccccn34)ccc2c1 (single isomer, unassigned) [Example 91]
39

Field entry: Fc1ccn2c(-c3ccc4cccc(OC5CCNCC5F)c4n3)nnc2c1 (stereo not shown) [Example 60]
1760

Field entry: Fc1ccc2nnc(-c3ccc4cccc(O[C@H]5CCNC[C@H]5F)c4n3)n2c1 (relative stereo) [Example 59]
2870

Field entry: CC(C)(CN)COc1c(Br)ccc2ccc(-c3nnc4ccccn34)nc12 [Example 58, dihydrochloride]
204

Field entry: N[C@H]1CC[C@H](Oc2cccc3ccc(-c4nnc5ccccn45)nc23)CC1 [Example 17]
134

Field entry: c1cc(NC2CCNCC2)c2nc(-c3nnc4ccccn34)ccc2c1 [Example 1]
1110

Field entry: F[C@@H]1CNCCC1Oc1cccc2ccc(-c3nnc4ccccn34)nc12 (stereo in doubt) [Example 26, dihydrochloride]
137

Field entry: COC[C@@H]1CC(Oc2cccc3ccc(-c4nnc5ccccn45)nc23)CCN1 (stereo partly shown) [Example 57]
484

Field entry: CC(C)(C)OC(=O)NCCCNc1cccc2ccc(-c3nnc4ccccn34)nc12 [Example 6]
10000

Field entry: FC1(COc2cccc3ccc(-c4nnc5ccccn45)nc23)CCCNC1 (stereo not shown) [Example 133]
142

Field entry: c1cc(O[C@@H]2CCNC2)c2nc(-c3nnc4ccccn34)ccc2c1 [Example 11]
2470

Field entry: c1cc(OC2CC3CCC(C2)N3)c2nc(-c3nnc4ccccn34)ccc2c1 (stereo not shown) [Example 29]
585

Field entry: c1cc(N[C@@H]2CCNC2)c2nc(-c3nnc4ccccn34)ccc2c1 [Example 5]
2020

Field entry: CC(C)COc1cccc2ccc(-c3nnc4cc(CN)ccn34)nc12 [Example 20]
51

Field entry: Nc1cc(Oc2cccc3ccc(-c4nnc5ccccn45)nc23)ccn1 [Example 75]
8940

Field entry: FC1(COc2cccc3ccc(-c4nnc5ccccn45)nc23)CNC1 [Example 107, dihydrochloride]
1000

Field entry: Cc1ccn2c(-c3ccc4cccc(OC5CCNCCC5F)c4n3)nnc2c1 (single isomer, unassigned) [Example 122]
1000

Field entry: Fc1cc(OCC2(F)CCNCC2)c2nc(-c3nnc4ccccn34)ccc2c1 [Example 106, dihydrochloride]
25.4

Field entry: NC(=O)CN1CCC(F)(COc2cccc3ccc(-c4nnc5ccccn45)nc23)CC1 [Example 83]
193

Field entry: OCC1(COc2cccc3ccc(-c4nnc5ccccn45)nc23)CC1 [Example 22]
501

Field entry: c1cc(N[C@H]2CCNC2)c2nc(-c3nnc4ccccn34)ccc2c1 [Example 4]
6020

Field entry: c1cncc(COc2cccc3ccc(-c4nnc5ccccn45)nc23)c1 [Example 44]
7470

Field entry: CC(C)CCN(CCCN)c1cccc2ccc(-c3nnc4ccccn34)nc12 [Example 8]
5570

Field entry: NCCCNc1cccc2ccc(-c3nnc4ccccn34)nc12 [Example 7]
1040

Field entry: FC1(COc2cccc3ccc(-c4nnc5ccc(C6CC6)cn45)nc23)CCNCC1 [Example 79, dihydrochloride]
55

Field entry: c1cc(OCC2CNCCO2)c2nc(-c3nnc4ccccn34)ccc2c1 (stereo not shown) [Example 126]
354

Field entry: F[C@H]1CNCC[C@@H]1Oc1cccc2ccc(-c3nnc4ccccn34)nc12 (relative stereo) [Example 25]
686

---

subject_of_test: PIM-1 (Homo sapiens (Human), UniProt P11309)
Sequence (P11309 whole entry, species assumed): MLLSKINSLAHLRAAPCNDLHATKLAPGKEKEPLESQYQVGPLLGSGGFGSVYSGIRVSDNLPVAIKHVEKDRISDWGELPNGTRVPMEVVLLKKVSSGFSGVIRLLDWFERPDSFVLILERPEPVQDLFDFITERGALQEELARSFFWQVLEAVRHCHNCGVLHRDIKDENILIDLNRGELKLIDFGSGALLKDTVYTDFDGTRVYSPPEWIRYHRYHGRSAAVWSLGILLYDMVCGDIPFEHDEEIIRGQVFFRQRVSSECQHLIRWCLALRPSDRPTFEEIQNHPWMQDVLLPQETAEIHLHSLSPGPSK
assay_remarks: PIM-1 Enzyme Assay
Format: biochemical
measurement_context: 35 μM ATP, 0.25 nM PIM-1
Counter-ions that a name gives are not always drawn.
Provide the recorded pIC50 for the entries that follow.
Quick note: pIC50 means taking -log10 of the concentration in moles per liter.

Name the recorded pIC50 for FC1(COc2cccc3ccc(-c4nnc5ccc(C6CC6)cn45)nc23)CCNCC1 [Example 79, dihydrochloride] .
9.70

Field entry: CC(C)(C)OC(=O)NCCCNc1cccc2ccc(-c3nnc4ccccn34)nc12
7.49

Field entry: c1cc(Oc2ccncc2)c2nc(-c3nnc4ccccn34)ccc2c1
6.82

Field entry: Nc1nccc(Oc2cccc3ccc(-c4nnc5ccccn45)nc23)n1
6.19

Field entry: OC1(COc2cccc3ccc(-c4nnc5ccccn45)nc23)CCCNCC1 (stereo not shown) [Example 116, bis-trifluoroacetate]
7.93

Field entry: Fc1ccc2nnc(-c3ccc4cccc(OCC5(F)CCNCC5)c4n3)n2c1 [Example 103, dihydrochloride]
8.85

Field entry: FC1CCNCCC1Oc1cccc2ccc(-c3nnc4ccccn34)nc12 (single isomer, unassigned) [Example 50, dihydrochloride]
7.92

Field entry: c1cncc(COc2cccc3ccc(-c4nnc5ccccn45)nc23)c1
7.20

Field entry: OCC(O)COc1cccc2ccc(-c3nnc4ccccn34)nc12 (stereo not shown)
7.47

Field entry: CC(C)CCN(CCCN)c1cccc2ccc(-c3nnc4ccccn34)nc12
7.80

Field entry: CON(C)C(=O)[C@@H]1C[C@@H](Oc2cccc3ccc(-c4nnc5ccccn45)nc23)CCN1 [Example 55, dihydrochloride]
7.15

Field entry: COC1(COc2cc(F)cc3ccc(-c4nnc5ccccn45)nc23)CCCN(CCO)CC1 (stereo not shown) [Example 115, dihydrochloride]
8.85

Field entry: CC(C)(CN)COc1cccc2ccc(-c3nnc4ccc(-c5ccccc5)cn34)nc12 [Example 65, dihydrochloride]
9.10

Field entry: Fc1ccc2nnc(-c3ccc4cccc(O[C@H]5CCNC[C@H]5F)c4n3)n2c1 (relative stereo)
7.26

Field entry: Cc1ccc2nnc(-c3ccc4cccc(OC5CCNCCC5F)c4n3)n2c1 (single isomer, unassigned)
8.82

Field entry: CCCC(Oc1cccc2ccc(-c3nnc4ccccn34)nc12)[C@@H](CC)CN (stereo partly shown)
7.89

---

Provide the recorded IC50 for the entries that follow.
subject_of_test: recombinant rat PIM-3 (Rattus norvegicus (Rat), UniProt O70444)
assay_remarks: PIM-3 Enzyme Assay
measurement_context: PIM-3 IC50 (nM), 30 μM ATP, 0.5 nM PIM-3
Where a name gives a salt, the structure may show the parent alone.
Please respond with the number in nM and leave the unit unwritten.

Name the recorded IC50 for FC1CCNCCC1Oc1cccc2ccc(-c3nnc4ccccn34)nc12 (single isomer, unassigned) [Example 48, dihydrochloride] .
4

Field entry: FC1CCNCCC1Oc1cccc2ccc(-c3nnc4ccccn34)nc12 (single isomer, unassigned) [Example 47, dihydrochloride]
41

Field entry: FC1CCNCCC1Oc1cccc2ccc(-c3nnc4ccccn34)nc12 (single isomer, unassigned) [Example 49, dihydrochloride]
2

Field entry: FC1CCNCCC1Oc1cccc2ccc(-c3nnc4ccccn34)nc12 (single isomer, unassigned) [Example 50, dihydrochloride]
8

---

Provide the recorded pIC50 for the entries that follow.
subject_of_test: UniProt:P11309
assay_remarks: PIM-1 Enzyme Assay
Assay type: biochemical
measurement_context: 35 μM ATP, 0.25 nM PIM-1
Where a name gives a salt, the structure may show the parent alone.
Quick note: pIC50 means taking -log10 of the concentration in moles per liter.

Name the recorded pIC50 for CCC(Oc1cccc2ccc(-c3nnc4ccccn34)nc12)[C@@H](CC)CN (some centres unmarked) .
8.52

Field entry: COC(=O)[C@@H]1C[C@H](Oc2cccc3ccc(-c4nnc5ccccn45)nc23)CN1
6.78

Field entry: CC(C)(CN)COc1ccc(F)c2ccc(-c3nnc4ccccn34)nc12
6.86

Field entry: Fc1cc(OCC2(F)CCNCC2)c2nc(-c3nnc4ccccn34)ccc2c1 [Example 106, dihydrochloride]
9.30

Field entry: FC1(COc2cccc3ccc(-c4nnc5ccccn45)nc23)CNC1 [Example 107, dihydrochloride]
8.03

Field entry: NC(=O)CN1CCC(F)(COc2cccc3ccc(-c4nnc5ccccn45)nc23)CC1
8.40

Field entry: N#Cc1ccc2nnc(-c3ccc4cccc(O[C@@H]5CCNCC[C@H]5F)c4n3)n2c1 (relative stereo) [Example 101, dihydrochloride]
7.89

Field entry: F[C@@H]1CNCC[C@@H]1Oc1cccc2ccc(-c3nnc4cc(Cl)ccn34)nc12
7.51

Field entry: O[C@H]1CC[C@H](Nc2cccc3ccc(-c4nnc5ccccn45)nc23)CC1
8.52

Field entry: COc1ccc2nnc(-c3ccc4cc(F)cc(OCC5(F)CCNCC5)c4n3)n2c1 [Example 110, dihydrochloride]
8.72

Field entry: CC(C)(CO)COc1cccc2ccc(-c3nnc4cc(CN)ccn34)nc12
9.15

Field entry: c1cc(OCc2ccncc2)c2nc(-c3nnc4ccccn34)ccc2c1
7.57

Field entry: Nc1cc(Oc2cccc3ccc(-c4nnc5ccccn45)nc23)ccn1
6.58

Field entry: NC(=O)N1CCC(Oc2cccc3ccc(-c4nnc5ccccn45)nc23)CC1
7.92

Field entry: Fc1cc(OC2CCNCC2(F)F)c2nc(-c3nnc4ccccn34)ccc2c1 (centres unmarked) [Example 93, dihydrochloride]
8.36

Field entry: FC1CNCCCC1Oc1cccc2ccc(-c3nnc4ccccn34)nc12 (centres unmarked) [Example 51, dihydrochloride]
8.52

Field entry: CC(C)(CNC(=O)CF)COc1cccc2ccc(-c3nnc4ccccn34)nc12
8.00

Field entry: CC(C)COc1cccc2ccc(-c3nnc4cc(CN)ccn34)nc12
8.70

Field entry: c1cc(OC2CC3CCC(C2)N3)c2nc(-c3nnc4ccccn34)ccc2c1 (centres unmarked)
8.30

Field entry: COC1(COc2cc(F)cc3ccc(-c4nnc5ccccn45)nc23)CCCNCC1 (centres unmarked) [Example 114, bis-trifluoroacetate]
9.15

Field entry: Fc1cc(OC2CCNCCC2F)c2nc(-c3nnc4ccccn34)ccc2c1 (single isomer, unassigned) [Example 120]
7.96

Field entry: c1cc(O[C@H]2CCNC2)c2nc(-c3nnc4ccccn34)ccc2c1
7.52

Field entry: c1cc(OCC2CCCNC2)c2nc(-c3nnc4ccccn34)ccc2c1 (centres unmarked)
9.00

Field entry: c1cc(OC2CCCNCC2)c2nc(-c3nnc4ccccn34)ccc2c1 (single isomer, unassigned) [Example 128]
7.72

Field entry: c1cc(OCC2CNCCO2)c2nc(-c3nnc4ccccn34)ccc2c1 (centres unmarked)
7.85

Field entry: OCC1(COc2cccc3ccc(-c4nnc5ccccn45)nc23)CC1
8.30

Field entry: F[C@@H]1CNCC[C@@H]1Oc1cccc2ccc(-c3nnc4ccc(Br)cn34)nc12 (relative stereo) [Example 78, dihydrochloride]
8.10

Field entry: CC(C)(COc1cc(F)cc2ccc(-c3nnc4ccccn34)nc12)[C@@H](O)CO [Example 112, dihydrochloride]
8.48

Field entry: c1cc(NC2CCNCC2)c2nc(-c3nnc4ccccn34)ccc2c1
8.80

Field entry: OC1(COc2cccc3ccc(-c4nnc5ccccn45)nc23)CCNCC1
8.28

Field entry: c1cc(OC2CCCNCC2)c2nc(-c3nnc4ccccn34)ccc2c1 (single isomer, unassigned) [Example 127]
8.32

Field entry: COC1(COc2cccc3ccc(-c4nnc5cc(C)ccn45)nc23)CCNCC1 [Example 125, di-trifluoroacetate]
9.00
